- Test system: MT4
- EXPERIMENT_SUMMARY: Effective concentration of compound required to achieve 50% protection of MT-4 cells against the cytopathic effect of HIV-1 number of experiments = 53
- Type: functional, cell-based
- MEASUREMENT_SETUP: Homo sapiens
EXPERIMENTAL_READOUT: pIC50
Field pIC50 (float): negative decimal logarithm of the concentration in molar.

Entry CC(C)=CCN1Cc2cc(Cl)cc3nc(S)n(c23)C[C@H]1C , pIC50 reported as 7.37

====

- Test system: Human immunodeficiency virus 1
- EXPERIMENT_SUMMARY: Effective concentration required to achieve 50% protection of MT-4 cells against the cytopathic effect of HIV-1.
- Format: functional, organism-based, MT4
- MEASUREMENT_SETUP: Human immunodeficiency virus 1, MT4
What IC50 was measured for each of the following?

Query S=c1[nH]c2cccc3c2n1-c1ccccc1N(CC1CC1)C3 yields IC50 of > 10 µM

Data point: CCCC1CN(CCC)Cc2cccc3[nH]c(=O)n1c23 (stereo not drawn) ; IC50 = > 180 µM

Kindly note the recorded IC50 for CCCN1Cc2cccc3nc(O)n(c23)CC1=O , which is > 250 µM
